# studyTarget: Protein arginine N-methyltransferase 1 (Homo sapiens) (UniProt Q99873)
# Sequence (Q99873 whole entry, looked up): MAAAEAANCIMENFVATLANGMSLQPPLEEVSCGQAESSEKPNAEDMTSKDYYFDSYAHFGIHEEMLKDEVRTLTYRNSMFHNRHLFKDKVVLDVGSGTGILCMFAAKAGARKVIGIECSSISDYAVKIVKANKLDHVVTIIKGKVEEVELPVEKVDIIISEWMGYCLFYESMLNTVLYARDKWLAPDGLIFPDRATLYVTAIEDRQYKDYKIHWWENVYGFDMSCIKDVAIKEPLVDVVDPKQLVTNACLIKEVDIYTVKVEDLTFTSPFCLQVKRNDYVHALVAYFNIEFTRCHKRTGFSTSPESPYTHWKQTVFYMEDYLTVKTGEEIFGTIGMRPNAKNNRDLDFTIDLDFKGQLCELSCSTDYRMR
# methodNotes: PRMT1 methyltransferase inhibitors, confirmation, biochemical, fluorescence polarization, triplicate (AID 687036)
# condition: recombinant His-PRMT1, activity-based probe fluorescence polarization; at 2.79 µM; active compounds read high
In all, about 3,300 compounds went through this assay and about 1,400 (42%) were called active. So high a share suggests a set chosen from earlier hits. Not all results are given here.

- compound: "COc1ccc(CCN2C(=O)CC(N3CCC(C(N)=O)CC3)C2=O)cc1OC (centres undefined)"
  inhibition [%]: 12.1
- compound: "CCC(c1nnnn1Cc1ccco1)N(CCc1ccccc1)Cc1cc2ccc(OC)cc2[nH]c1=O (centres undefined)"
  inhibition [%]: 5.74
- compound: "OCCN1CCN(C(=S)c2ccc(-c3ccccc3)cc2)CC1"
  inhibition [%]: 61.8
- compound: "Fc1ccc(COc2cccc(-c3n[nH]c(=S)o3)c2)cc1"
  inhibition [%]: 14.3
- compound: "CCN1/C(=C/C(=S)Nc2ccccc2)Sc2ccccc21"
  inhibition [%]: 24.8
- compound: "S=c1[nH]nc2c3c4c(sc3ncn12)CCCC4"
  inhibition [%]: 17.1
- compound: "Cc1ccc(NC(=O)Cn2sc3ccccc3c2=O)cc1"
  inhibition [%]: 82.3
- compound: "COc1ccc(NC2=CC(=S)NC(C)(C)C2)cc1"
  inhibition [%]: -3.18
- compound: "O=C(CC1N=C2c3ccccc3N=C(SCc3ccccc3Cl)N2C1=O)NCc1ccco1 (centres undefined)"
  inhibition [%]: 5.28
- compound: "CN(C)C(=S)N=c1ssc(=S)n1Cc1ccco1"
  inhibition [%]: 15.6
- compound: "O=C(Cc1ccc(-c2ccccc2)cc1)NC(c1ccccc1)c1ccccc1"
  inhibition [%]: 3.32
- compound: "O=C(CSc1cccc[n+]1[O-])c1ccc(-c2ccccc2)cc1"
  inhibition [%]: 25.6
- compound: "Cc1cccc(C)c1NC(=O)C(Cl)C(=O)c1ccccc1 (centres undefined)"
  inhibition [%]: 30
- compound: "Cc1ccc(NC(=O)c2cc(-c3ccc(C)o3)nc3ccccc23)nc1"
  inhibition [%]: 10.3
